Test system: HT-29
METHOD: NCI tumour cell line growth inhibition, 48 h
The source made the active and inactive calls. Cut-off read from the data, not from the text of the source: active = GI50 up to about 1.1 µM and inactive = higher. Starred links: 1 amine or outer side, 2 acyl side, 3 side chain; linkers in the order of their positions; H or OH if unused. Non-standard residues stand in square brackets, D forms with d. Residues, ends and D or L forms follow the SMILES beside them. *: point of attachment. X47 = CCC(=O)CC1CC(C)CC(C(=O)[*:2])N1[*:1]; X46 = CCCCCCCCC(C)C(=O)*; Aib = CC(C)(N)C(=O)O; X48 = CC(CN(C)CCO)N*
GI50 reference
ATTRIBUTE MEASURED: GI50

[[record]]
compound = "CCn1c(=O)c(C(=O)O)c(Cl)c2cc3c(cc21)OCO3"
reported_result = "> 100 µM (inactive)"

[[record]]
compound = "Cc1ccc(S(=O)(=O)NC(=O)NC(CCC(N)=O)C(=O)O)cc1 (configuration not stated)"
reported_result = "> 100 µM (inactive)"

[[record]]
compound = "C=C(C)C1CCC(C(=O)O)CC1 (configuration not stated)"
reported_result = "> 100 µM (inactive)"

[[record]]
compound = "O=C1c2ccccc2C(O)(C(=O)O)C1(O)CC=C(Cl)Cl (configuration not stated)"
reported_result = "> 125 µM (inactive)"

[[record]]
compound = "CN1c2ccccc2SC2C(c3ccccc3)=NOC21 (configuration not stated)"
reported_result = "30.1 µM (inactive)"

[[record]]
compound = "COc1ccc2nc3c([N+](=O)[O-])ccc(NCCN(C)C)c3c(N)c2c1"
reported_result = "0.508 µM (active)"

[[record]]
compound = "CCCCCCCCC(C)C(=O)N1CCCC1C(=O)N1C(CC(=O)CC)CC(C)CC1C(=O)NC(C)C(=O)NC(C)(C)C(=O)NC(C)(C)C(=O)NC(C(=O)NC(C)C(=O)NC(C)(C)C(=O)NC(C)(C)C(=O)NC(C)CN(C)CCO)C(C)CC (configuration not stated) (X46-P[X47]A[Aib][Aib]IA[Aib][Aib]-X48; configuration not given here)"
reported_result = "0.0261 µM (active)"


---

Test system: UACC-257
METHOD: NCI tumour cell line growth inhibition, 48 h
Active and inactive are the calls of the source. No stated cut-off is given here; in the data, active = GI50 up to about 1.1 µM and inactive = higher.
Entries and their measured GI50 follow.
ATTRIBUTE MEASURED: GI50

[[record]]
compound = "O=C(CCc1cccc(O)c1)NCCCNC(=O)CCc1cccc(O)c1"
reported_result = "> 100 µM (inactive)"

[[record]]
compound = "C=C1C(=O)OC2C1C(OC(=O)/C(C)=C/C)CC(O)(CCl)C1C(O)C=C(C)C21O (stereo unspecified)"
reported_result = "12.1 µM (inactive)"

[[record]]
compound = "CC(=O)OC1C(O)COC(O[C@H]2CC[C@]34C[C@]35CC[C@]3(C)C([C@@]6(C)CC[C@@H](C(C)(C)O)O6)[C@@H](O)C[C@@]3(C)C5C[C@H](OC3OCC(O)C(O)C3O)[C@H]4C2(C)C)C1OC1OCC(O)C(O)C1O (stereo partly specified)"
reported_result = "> 100 µM (inactive)"

[[record]]
compound = "N#C/C(=C\\c1cccc(O)c1)C(N)=O"
reported_result = "> 100 µM (inactive)"

[[record]]
compound = "COc1ccc(C2=C(N)c3c(Cl)cccc3C2=O)cc1"
reported_result = "> 100 µM (inactive)"

[[record]]
compound = "CC(=O)OCc1ccc(-c2nc(C#N)c(N)o2)o1"
reported_result = "> 10 µM (inactive)"


---

Tested on: HOP-18
METHOD: NCI tumour cell line growth inhibition, 48 h
Calls of active or inactive are those of the source. No stated cut-off is given here; in the data, active = GI50 up to about 1.1 µM and inactive = higher.
Measured GI50 accompanies every entry in the list below.
ATTRIBUTE MEASURED: GI50

[[record]]
molecule = "N#CC1C(=O)C(=O)N(c2ccccc2)C1=O (stereo unspecified)"
attribute_measured = "GI50"
reported_result = "> 100 µM (inactive)"

[[record]]
molecule = "C/C(=N\\NC(N)=S)C(CN(CC(C)C)CC(C)C)C(=O)Nc1ccc(C)cc1C (stereo unspecified)"
attribute_measured = "GI50"
reported_result = "> 100 µM (inactive)"

[[record]]
molecule = "CC1=C(C(=O)NCc2ccccc2)C(c2ccco2)C(C(=O)NCc2ccccc2)=C(C)N1"
attribute_measured = "GI50"
reported_result = "> 100 µM (inactive)"

[[record]]
molecule = "CN(C)CC1(C)CC/C(=C\\c2ccccc2)C1=O (stereo unspecified)"
attribute_measured = "GI50"
reported_result = "> 100 µM (inactive)"

[[record]]
molecule = "COS(=O)CCOC(=O)c1ccccc1SSc1ccccc1C(=O)OCCS(=O)OC (stereo unspecified)"
attribute_measured = "GI50"
reported_result = "> 100 µM (inactive)"

[[record]]
molecule = "O=C1C(=C2CCCC2)CCC1CN1CCCCC1 (stereo unspecified)"
attribute_measured = "GI50"
reported_result = "15.3 µM (inactive)"

[[record]]
molecule = "Cc1c2ccncc2c(C)c2c1[nH]c1ccccc12 [ELLIPTECINE]"
attribute_measured = "GI50"
reported_result = "1.49 µM (inactive)"

[[record]]
molecule = "O=C(CC1Sc2ccccc2NC1=O)Nc1ccc(Cl)cc1 (stereo unspecified)"
attribute_measured = "GI50"
reported_result = "20 µM (inactive)"

[[record]]
molecule = "Cc1c2cc[n+](C)cc2c(C)c2c1[nH]c1ccc(OC(C)(C)C)cc12"
attribute_measured = "GI50"
reported_result = "> 100 µM (inactive)"

[[record]]
molecule = "CC1=C(C(=O)O)N2C(=O)[C@@H](NC(=O)C(c3ccc(O)cc3)N3CSC(=S)N(C(C)C)C3)C2SC1 (stereo partly specified)"
attribute_measured = "GI50"
reported_result = "> 100 µM (inactive)"

[[record]]
molecule = "O=C(NCCCl)O/N=C/c1cccnc1"
attribute_measured = "GI50"
reported_result = "> 100 µM (inactive)"

[[record]]
molecule = "CC1(C)N=C(N)N=C(N)N1c1ccc(CCc2ccccc2)cc1"
attribute_measured = "GI50"
reported_result = "45.7 µM (inactive)"

[[record]]
molecule = "O=C(c1ccccc1)c1cccc(C(=O)c2ccccc2)c1"
attribute_measured = "GI50"
reported_result = "> 100 µM (inactive)"

[[record]]
molecule = "CC(C)=CC(=O)N1CCN(C(=O)C=C(C)C)CC1"
attribute_measured = "GI50"
reported_result = "> 100 µM (inactive)"

[[record]]
molecule = "Sc1ccccc1S"
attribute_measured = "GI50"
reported_result = "> 100 µM (inactive)"

[[record]]
molecule = "O=C(O)C(Cc1cccs1)NC(=O)C(F)(F)F (stereo unspecified)"
attribute_measured = "GI50"
reported_result = "> 100 µM (inactive)"


---

compounds and their reported GI50
Test system: EKVX
METHOD: NCI tumour cell line growth inhibition, 48 h
Active and inactive are the calls of the source. Rule as the data show it: active = GI50 up to about 1.1 µM and inactive = higher.
ATTRIBUTE MEASURED: GI50

[[record]]
compound = "O=S(=O)(Oc1ccc2ccccc2c1-c1c(OS(=O)(=O)C(F)(F)F)ccc2ccccc12)C(F)(F)F"
target_or_test_system = "EKVX"
reported_result = "66.4 µM (inactive)"

[[record]]
compound = "CC(C)OC(=O)OCSc1ccccc1/N=C/c1cccc([N+](=O)[O-])c1"
target_or_test_system = "EKVX"
reported_result = "> 10 µM (inactive)"

[[record]]
compound = "C/C(Cl)=N\\OC(=O)Nc1ccc(C)cc1"
target_or_test_system = "EKVX"
reported_result = "18.3 µM (inactive)"

[[record]]
compound = "CCOC(=O)c1c(-c2ccc(OC)cc2)c(C#N)c(=S)n(C2OC(COC(C)=O)C(OC(C)=O)C(OC(C)=O)C2OC(C)=O)c1C (configuration not stated)"
target_or_test_system = "EKVX"
reported_result = "78.2 µM (inactive)"

[[record]]
compound = "CCCCCCc1cc2cc(-c3csc(-c4ccc(OC)cc4)n3)c(=O)oc2cc1O"
target_or_test_system = "EKVX"
reported_result = "20.2 µM (inactive)"

[[record]]
compound = "CC(C)(CO)N1C(=O)c2ccccc2C1(O)c1ccc(Cl)cc1 (configuration not stated)"
target_or_test_system = "EKVX"
reported_result = "> 100 µM (inactive)"

[[record]]
compound = "CC(=O)OCc1ccc(-c2nc(C#N)c(N)o2)o1"
target_or_test_system = "EKVX"
reported_result = "> 10 µM (inactive)"

[[record]]
compound = "COc1ccc(C(c2ccc(C(C)C)cc(=O)c2O)c2ccc3cccnc3c2O)cc1 (configuration not stated)"
target_or_test_system = "EKVX"
reported_result = "1.27 µM (inactive)"

[[record]]
compound = "O=S(=O)(N/N=C1\\CC2CCC1C2)c1ccccc1 (configuration not stated)"
target_or_test_system = "EKVX"
reported_result = "> 100 µM (inactive)"

[[record]]
compound = "N#Cc1nc(COCCOCc2ccc(F)cc2)oc1N"
target_or_test_system = "EKVX"
reported_result = "> 100 µM (inactive)"

[[record]]
compound = "Cc1ccc2c(c1)C(=O)C1(C2)Cc2ccc(C)cc2C1=O"
target_or_test_system = "EKVX"
reported_result = "> 100 µM (inactive)"

[[record]]
compound = "CC(NC(=O)C(N)CC(=O)O)NC(=O)N1CCOCC1 (configuration not stated)"
target_or_test_system = "EKVX"
reported_result = "> 100 µM (inactive)"

